procedureSummary: reduction of polyQ htt aggregates in cells – imaging, exon1htt(103Q)mCFP cells, high-content imaging, primary screen (AID 483);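 note: compound exposure lasted 3 days before fixation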
settings: exon1htt(103Q)mCFP cell line, aggregate imaging, at 2 µM; stronger effect = higher value
# cutoff -20% applies to inhibition of aggregation; >= gives met, < gives not met

{"columns": ["compound", "labelClass"],
 "data": [
  ["Cc1nccn1CCCN1C(=O)OC2(CCCCC2)C1(C)O (stereo not drawn)", "met"],
  ["CCCC1CC(C)(C(=O)Cn2[nH]c(=O)ccc2=O)OC1=O (stereo not drawn)", "not met"],
  ["CCn1nccc1C(=O)Nc1nccs1", "not met"],
  ["COc1ccc(Cl)c(N2CCN(CCCNC(=O)Nc3ccc(C)cc3)CC2)c1", "met"],
  ["O=c1c2ccccc2nc(SCc2nc(-c3ccccc3)no2)n1-c1ccc(F)cc1", "met"],
  ["CCOC(=O)CSC1=C(C#N)C(c2ccc(Cl)cc2)C(C(=O)OC)C(=O)N1 (stereo not drawn)", "not met"],
  ["Cc1ccc(S(=O)(=O)C2(C(=O)Nc3cccnc3)CC2)cc1", "met"],
  ["COc1ccc(S(=O)(=O)Nc2ccc(S(=O)(=O)N3CCCCC3)cc2)cc1OC", "met"],
  ["CCOC(=O)C1=C(N)OC2=C(C(=O)CC(C)(C)C2)C1c1ccoc1 (stereo not drawn)", "met"],
  ["Fc1cccc2sc(Nc3nnc(-c4ccco4)o3)nc12", "met"],
  ["O=C1OC(N2CCN(c3ccccn3)CC2)c2ccccc21 (stereo not drawn)", "met"],
  ["CCn1c(SCC(=O)Nc2ccc(C(C)=O)cc2)nc2ccccc21", "met"],
  ["O=C(c1csc2ccccc12)N1CCCCCC1", "met"],
  ["CC(C)(C)NC(=O)Cn1nnnc1-c1nonc1N", "met"],
  ["O=C(Nc1ccc(NC(=O)C2CC2)cn1)c1ccccc1Cl", "met"],
  ["CCN(CC)C(=O)c1sc(NC(=O)c2ccco2)c(C#N)c1C", "not met"],
  ["Cc1ccc(NC(=O)CNc2cccc(C)c2C)c(C)c1", "not met"]
]}

* * *

procedureSummary: endothelial E-selectin expression blockers – imaging, HUVEC, immunofluorescence, MLSMR starter and 10KST1 sets, primary screen (AID 487);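 for nuclei count: 100% = median nuclei count of all wells on the same plate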
settings: HUVEC TNFalpha-induced E-selectin immunofluorescence imaging, at 2 µM; measured here: cell number, toxicity

{"columns": ["compound", "nuclei count, %"],
 "data": [
  ["Cc1cc(C)c(C(=O)Nc2ccc(S(=O)(=O)Nc3onc(C)c3C)cc2)c(C)c1", 114],
  ["CN(C)C(=O)CSc1nnc([C@H](Cc2c[nH]c3ccccc23)NC(=O)OC(C)(C)C)o1", 112],
  ["CN(Cc1ccccc1)C(=O)c1cc(-c2ccc(Br)cc2)on1", 110],
  ["CCC(C)OC(=O)C1=C(C)NC2=C(C(=O)C(C(=O)OC)C(C)C2)C1c1ccc(N(C)C)cc1 (centres undefined)", 115]
]}

* * *

Reported NADPH fluorescence slope values are given for each entry in this list.
testedTarget: Voltage-gated potassium channel subunit beta-2 (Rattus norvegicus) (UniProt P62483)
Sequence (P62483 whole entry, looked up): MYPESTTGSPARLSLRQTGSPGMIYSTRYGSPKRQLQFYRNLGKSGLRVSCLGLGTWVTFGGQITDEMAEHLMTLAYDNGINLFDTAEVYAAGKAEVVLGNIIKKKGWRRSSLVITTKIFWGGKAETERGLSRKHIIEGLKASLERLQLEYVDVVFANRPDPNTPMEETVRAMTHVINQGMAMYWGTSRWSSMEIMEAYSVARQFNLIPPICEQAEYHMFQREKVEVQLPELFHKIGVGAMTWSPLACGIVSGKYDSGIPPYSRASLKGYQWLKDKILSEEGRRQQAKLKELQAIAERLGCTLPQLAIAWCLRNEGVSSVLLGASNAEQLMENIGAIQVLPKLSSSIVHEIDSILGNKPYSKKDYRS
procedureSummary: enhancers of rat Kvbeta2 NADPH turnover – biochemical, NADPH fluorescence, primary screen (AID 623);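 note: fluorescence intensity change per second fitted from 20 to 320 s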
settings: Recombinant KvBeta, NADPH fluorescence decrease slope, 10 min; at 10 µM; stronger effect = lower value

{"columns": ["molecule", "NADPH fluorescence slope"],
 "data": [
  ["CCOC(=O)Cn1c(N2CCOCC2)nc2c1c(=O)[nH]c(=O)n2C", "-6.2e-05"],
  ["CCN(CC)c1ccc(NC(=O)c2cncc(Br)c2)cc1", "-6e-05"],
  ["CCOC(=O)N1CCC(NC(=O)C2CCCN(C(=O)c3cc4sccc4n3C)C2)CC1 (configuration not stated)", "-4.1e-05"],
  ["Cc1cc2c(cc(C(=O)OCC(=O)NCc3cccs3)n2C(C)C)o1", "-5.1e-05"],
  ["COc1ccc(S(=O)(=O)N(C)CC(=O)N2CCCCC2)cc1Cl", "-2.5e-05"],
  ["CCOc1ccc2nc(SCC#N)c(C#N)cc2c1", "-1.4e-05"],
  ["CCc1ccc2[nH]c(=O)c(C(c3nnnn3CC3CCCO3)N3CCN4CCCC4C3)cc2c1 (configuration not stated)", "-5.9e-05"],
  ["CCOC(=O)N1CCN(C(=O)CCc2c(C)nc3c(c(C)nn3-c3ccc(C)c(C)c3)c2C)CC1", "1.1e-05"],
  ["CCN(C(=O)Cc1c(C(=O)O)[nH]c2ccccc12)c1cc(OC)ccc1OC", "-4e-05"],
  ["COc1cc(CC(=O)NCc2ccc3c(c2)OCO3)cc(OC)c1OC", -0.000135],
  ["Cn1c(C(=O)NCc2cccnc2)cc2sccc21", "3.4e-05"],
  ["O=C(Nc1ccccc1C(=O)O)c1cccc(NC(=O)c2ccc(Br)o2)c1", "-4e-05"]
]}

* * *

procedureSummary: endothelial E-selectin expression blockers – imaging, HUVEC, immunofluorescence, MLSMR starter and 10KST1 sets, primary screen (AID 487);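 for inhibition: signal is fraction of cell area covered by stained E-selectin grains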
settings: HUVEC TNFalpha-induced E-selectin immunofluorescence imaging, at 2 µM; stronger effect = higher value
readout: inhibition (%)

{"columns": ["compound", "readout", "measured"],
 "data": [
  ["Nc1ccc(-n2c(N)c(C(=O)NCc3ccc4c(c3)OCO4)c3nc4ccccc4nc32)cc1", "inhibition", -16.4],
  ["CCn1cc(C(=O)OCc2ccc(F)cc2)c(=O)c2ccc(C)nc21", "inhibition", -16.9],
  ["CCOC(=O)c1[nH]c(C)c(C(=O)N(C)C)c1C", "inhibition", -68],
  ["O=c1ccn(Cc2ccccc2Cl)cc1", "inhibition", 0.1],
  ["CC(=O)N1CCN(S(=O)(=O)c2ccc(S(=O)(=O)NC3CC3)cc2)CC1", "inhibition", 33.9],
  ["Cc1cc(NC(=O)c2cc(-c3ccco3)on2)n(-c2ccccc2)n1", "inhibition", -56.3],
  ["COC(=O)c1[nH]c2ccc(C)cc2c1NC(=O)CN1CCCC(C)(C)C1", "inhibition", -330],
  ["NC(=O)c1ccsc1NC(=O)COC(=O)Cc1ccsc1", "inhibition", 26.2],
  ["O=C(/C=C/N1CCOCC1)c1ccc(-c2ccccc2)cc1", "inhibition", 33.9],
  ["Cc1ccc(C)c(OCC(O)CN2C(C)CCCC2C)c1 (stereo not drawn)", "inhibition", -71.2],
  ["COC(=O)[C@H](CCSC)NC(=O)Nc1cc(C)ccc1C", "inhibition", -5.7],
  ["O=c1/c(=C/c2ccco2)sc2nc(-c3ccccc3Br)nn12", "inhibition", -34.7],
  ["C=CCOc1ccc(CN(C)CC(=O)N(CC(C)C)c2c(N)n(CC(C)C)c(=O)[nH]c2=O)cc1", "inhibition", -77.8],
  ["O=C(CN1C(=O)c2ccccc2S1(=O)=O)Nc1ccc(S(=O)(=O)N2CCCCCC2)cc1", "inhibition", -91.2],
  ["COc1cccc(CN2C(=O)C3(C(C#N)=C(N)OC4=C3C(=O)CCC4)c3ccccc32)c1 (stereo not drawn)", "inhibition", -15.9],
  ["CCOC(=O)N1CCN(C(=O)CCc2c(C)nc3c(c(C)nn3-c3ccc(C)c(C)c3)c2C)CC1", "inhibition", -63.4],
  ["COc1ccc2c(C(F)(F)F)cc(=O)oc2c1C", "inhibition", -97],
  ["CC(=O)Nc1sc2c(c1C#N)CCCCC2", "inhibition", -76.6],
  ["CC(=O)Nc1ccc(OC(=O)c2cccnc2)cc1", "inhibition", -194],
  ["COc1ccc(C)cc1NC(=O)c1nnn(Cc2cccc(F)c2)c1N", "inhibition", -31.3],
  ["COc1ccccc1N(CC(=O)NC1CCCC1)C(=O)c1csnn1", "inhibition", -49.4],
  ["CC(=O)OCC(=O)c1ccc2ccn(C(C)=O)c2c1", "inhibition", -19.1],
  ["COc1ccc(-c2nnc3sc(C(C)N4C(=O)c5ccccc5C4=O)nn23)cc1 (stereo not drawn)", "inhibition", -8.9]
]}

* * *

Reported fluorescence slope values are given for each entry in this list.
testedTarget: Voltage-gated potassium channel subunit beta-2 (Rattus norvegicus) (UniProt P62483)
procedureSummary: inhibitors of rat Kvbeta2 reductase activity – biochemical, NADPH fluorescence, primary screen (AID 622);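 note: slope of raw intensity against log time taken from 70 to 1610 s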
settings: recombinant KvBeta, 4-cyanobenzaldehyde reduction, at 10 µM, stronger effect = higher value

{"columns": ["substanceSmiles", "fluorescence slope"],
 "data": [
  ["CCc1nnc(NC(=O)CSc2nnc3ncccn23)s1", -0.437],
  ["COc1ccc(-c2cc(N3CCCC3)n3ncnc3n2)cc1", -0.473],
  ["COC(=O)Cc1csc(N)n1", -0.529],
  ["COc1cc(OC)c(OC)cc1CN(C)CCc1ccccn1", -0.356],
  ["CCOC(=O)c1cccc(NC(=O)C2CCN(S(=O)(=O)c3cccs3)CC2)c1", -0.634],
  ["c1ccc(-c2noc(-c3cccnc3)n2)nc1", -0.575],
  ["CCOC(=O)Cn1nnnc1CN(Cc1ccc(OC)cc1)Cc1cc2cc(C)ccc2[nH]c1=O", -0.384],
  ["Nc1ccc(-c2ccc(N)cc2C(F)(F)F)c(C(F)(F)F)c1", -0.446]
]}
